Experiment: Acute toxicity in mice (up and down method)
Conditions: mouse, in vivo, iv
assay readout: LD50 (mg/kg)
The reply should be a number in mg/kg, with the unit left off.

-- ask Fill in: LD50 of CC1(C)C=C(n2ccc(CO[N+](=O)[O-])cc2=O)c2cc(C#N)ccc2O1 is ___
-- reply 81.2

meta.source: patent US5296492A
